The origin of these recorded values is paper PMC8951016.

# target: PCSK9-LDLR (Homo sapiens)
# Construct: purchased CycLex Co., Nagano, Japan (CircuLex)
# Sequence (Q8NBP7 153-692): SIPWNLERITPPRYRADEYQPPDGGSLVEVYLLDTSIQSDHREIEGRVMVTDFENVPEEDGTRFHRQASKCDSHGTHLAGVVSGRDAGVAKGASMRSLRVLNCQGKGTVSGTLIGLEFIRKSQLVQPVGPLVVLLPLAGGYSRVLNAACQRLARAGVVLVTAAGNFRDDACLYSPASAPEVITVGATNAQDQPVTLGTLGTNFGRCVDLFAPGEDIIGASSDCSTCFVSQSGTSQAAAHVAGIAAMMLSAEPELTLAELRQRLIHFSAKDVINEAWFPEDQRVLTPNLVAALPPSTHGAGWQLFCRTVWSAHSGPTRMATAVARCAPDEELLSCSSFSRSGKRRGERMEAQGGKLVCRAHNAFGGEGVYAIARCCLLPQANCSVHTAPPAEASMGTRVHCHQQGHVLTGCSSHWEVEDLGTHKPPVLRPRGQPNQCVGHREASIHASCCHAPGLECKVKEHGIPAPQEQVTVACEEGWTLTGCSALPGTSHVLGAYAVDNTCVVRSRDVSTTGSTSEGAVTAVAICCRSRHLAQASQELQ
# Sequence (Q8NBP7 31-152 partner limits assumed): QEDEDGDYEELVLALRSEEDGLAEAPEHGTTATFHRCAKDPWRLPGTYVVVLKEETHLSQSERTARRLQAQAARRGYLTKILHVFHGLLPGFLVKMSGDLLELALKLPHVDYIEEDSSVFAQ
# method.description: In vitro PCSK9-LDLR binding assay
# run.conditions: 0.1–100 µM, LDLR-AB coated plate, 2 h at RT, absorbance 450 nm; four independent experiments in duplicate
No end group written: not given here.
property: pIC50
Give bare numbers, as −log10 of the molar value.

In [3]: df
Out[3]:
               sequence_record  reported_value
0  LILPKHADAD [Peptide P5-S7A]            5.84

// switching to the query sequence
query: Give the measured pIC50 of LILPKASDAD [Peptide P5-H6A] .
result: 5.05
